target: Dolichyl-phosphate-mannose--protein mannosyltransferase 1 (Candida albicans (strain SC5314 / ATCC MYA-2876) (Yeast)); assay: In vitro inhibition of Candida albicans protein mannosyl transferase 1
Endpoint: IC50 (µM)

[[record]]
compound = "O=C(O)CN1C(=O)/C(=C/c2ccc(OCc3ccccc3)c(OCc3ccc(Cl)cc3)c2)SC1=S"
result_number = 7

[[record]]
compound = "O=C(O)CN1C(=O)/C(=C/c2ccc(OCc3ccc(F)cc3F)c(OCc3ccccc3)c2)SC1=S"
result_number = 6.5

[[record]]
compound = "CCCN(CCC)C(=O)C(Oc1cc(/C=C2\\SC(=S)N(CC(=O)O)C2=O)ccc1OCCc1ccccc1)c1ccccc1 (centres undefined)"
result_number = 0.8

[[record]]
compound = "O=C(O)CN1C(=O)/C(=C\\c2ccc(OCc3ccccc3)c(OCc3ccc(OC(F)(F)F)cc3)c2)SC1=S"
result_number = 2


###

Reported values of pIC50 for individual entries
Target: Dolichyl-phosphate-mannose--protein mannosyltransferase 1 (Candida albicans (strain SC5314 / ATCC MYA-2876) (Yeast), UniProt O74189)
Sequence (O74189 whole entry): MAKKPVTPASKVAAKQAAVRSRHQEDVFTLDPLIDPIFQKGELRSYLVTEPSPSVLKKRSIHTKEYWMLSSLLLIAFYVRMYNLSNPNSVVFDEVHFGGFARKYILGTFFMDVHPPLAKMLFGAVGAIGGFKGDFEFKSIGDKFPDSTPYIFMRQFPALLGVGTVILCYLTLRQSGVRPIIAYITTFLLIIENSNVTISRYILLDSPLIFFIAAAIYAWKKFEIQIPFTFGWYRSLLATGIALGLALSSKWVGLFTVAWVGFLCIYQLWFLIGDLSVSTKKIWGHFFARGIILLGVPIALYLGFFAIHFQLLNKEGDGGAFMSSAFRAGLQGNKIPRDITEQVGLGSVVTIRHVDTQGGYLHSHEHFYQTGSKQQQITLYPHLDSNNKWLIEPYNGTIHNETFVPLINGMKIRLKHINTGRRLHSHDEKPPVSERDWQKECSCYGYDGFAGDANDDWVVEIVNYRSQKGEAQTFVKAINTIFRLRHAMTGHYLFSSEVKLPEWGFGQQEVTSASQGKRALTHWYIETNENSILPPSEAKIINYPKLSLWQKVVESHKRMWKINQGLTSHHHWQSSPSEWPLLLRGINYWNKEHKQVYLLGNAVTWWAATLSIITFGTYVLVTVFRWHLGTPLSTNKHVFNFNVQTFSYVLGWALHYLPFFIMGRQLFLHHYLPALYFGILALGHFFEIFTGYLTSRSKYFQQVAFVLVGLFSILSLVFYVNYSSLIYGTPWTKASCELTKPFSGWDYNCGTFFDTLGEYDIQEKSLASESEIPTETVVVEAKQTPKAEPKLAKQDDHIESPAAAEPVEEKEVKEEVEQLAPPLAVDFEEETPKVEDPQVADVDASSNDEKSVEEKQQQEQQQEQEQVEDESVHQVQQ
Test: In vitro inhibition of Candida albicans protein mannosyl transferase 1
pIC50: −log10 of the molar value.
Endpoint: pIC50

[[record]]
molecule = "C[C@@H](COc1ccc(/C=C2\\SC(=S)N(CC(=O)O)C2=O)cc1O[C@H](c1ccccc1)C(F)(F)F)c1ccccc1"
result_number = 6.40

[[record]]
molecule = "CC[C@H](COc1ccc(/C=C2\\SC(=S)N(CC(=O)O)C2=O)cc1O[C@H](c1ccccc1)C(F)(F)F)c1ccccc1"
result_number = 6.30

[[record]]
molecule = "CC[C@@H](COc1ccc(/C=C2\\SC(=S)N(CC(=O)O)C2=O)cc1O[C@H](c1ccccc1)C(F)(F)F)c1ccccc1"
result_number = 6.46

[[record]]
molecule = "O=C(O)CN1C(=O)/C(=C/c2ccc(OCCc3ccccc3)c(OC(C(=O)N3CCOCC3)c3ccccc3)c2)SC1=S (stereo not given)"
result_number = 6.00

[[record]]
molecule = "O=C(O)CN1C(=O)/C(=C/c2ccc(OCc3ccccc3)c(OCc3ccncc3)c2)SC1=S"
result_number = 4.52


###

test system: Candida albicans; test: In vitro inhibition of Candida albicans G418-sensitive proliferation; type: functional, organism-based
Endpoint: IC50 (nM)

[[record]]
compound = "O=C(O)CN1C(=O)/C(=C/c2ccc(OCc3ccccc3)c(OCc3ccc(C(F)(F)F)cc3)c2)SC1=S"
endpoint = "IC50"
units_label = "nM"
relational_operator = ">"
result_number = 100000

[[record]]
compound = "CS(=O)(=O)c1ccc(COc2cc(/C=C3\\SC(=S)N(CC(=O)O)C3=O)ccc2OCc2ccccc2)cc1"
endpoint = "IC50"
units_label = "nM"
relational_operator = ">"
result_number = 100000

[[record]]
compound = "O=C(O)CN1C(=O)/C(=C/c2ccc(OCc3ccccc3)cc2)SC1=S"
endpoint = "IC50"
units_label = "nM"
relational_operator = "="
result_number = 50000

[[record]]
compound = "O=C(O)CN1C(=O)/C(=C/c2ccc(OCCc3ccccc3)c(OC(CO)c3ccccc3)c2)SC1=S (centres undefined)"
endpoint = "IC50"
units_label = "nM"
relational_operator = "="
result_number = 300

[[record]]
compound = "O=C(O)CN1C(=O)/C(=C/c2ccc(OCCc3ccc(Cl)cc3)c(OCc3ccccc3)c2)SC1=S"
endpoint = "IC50"
units_label = "nM"
relational_operator = "="
result_number = 50

[[record]]
compound = "O=C(O)CN1C(=O)/C(=C/c2ccc(OCCc3cc(F)cc(F)c3)c(OCc3ccccc3)c2)SC1=S"
endpoint = "IC50"
units_label = "nM"
relational_operator = "="
result_number = 110

[[record]]
compound = "COc1cccc(COc2cc(/C=C3\\SC(=S)N(CC(=O)O)C3=O)ccc2OCc2ccccc2)c1"
endpoint = "IC50"
units_label = "nM"
relational_operator = ">"
result_number = 100000

[[record]]
compound = "O=C(O)CN1C(=O)/C(=C/c2ccc(OCc3c(F)cccc3F)c(OCc3c(F)cccc3F)c2)SC1=S"
endpoint = "IC50"
units_label = "nM"
relational_operator = ">"
result_number = 100000

[[record]]
compound = "COc1cccc(COc2ccc(/C=C3\\SC(=S)N(CC(=O)O)C3=O)cc2OCc2cccc(OC)c2)c1"
endpoint = "IC50"
units_label = "nM"
relational_operator = ">"
result_number = 100000

[[record]]
compound = "O=C(O)CN1C(=O)/C(=C/c2ccc(OCc3ccccc3)c(OCc3cccc(Cl)c3)c2)SC1=S"
endpoint = "IC50"
units_label = "nM"
relational_operator = "="
result_number = 4000

[[record]]
compound = "O=C(O)CN1C(=O)/C(=C/c2ccc(OCc3ccccc3)c(OCc3ccncc3)c2)SC1=S"
endpoint = "IC50"
units_label = "nM"
relational_operator = ">"
result_number = 100000

[[record]]
compound = "O=C(O)CN1C(=O)/C(=C/c2ccc(OCCc3ccccc3)c(OCc3ccccc3)c2)SC1=S"
endpoint = "IC50"
units_label = "nM"
relational_operator = "="
result_number = 500

[[record]]
compound = "O=C(O)CN1C(=O)/C(=C/c2ccc(OCCc3ccc(F)cc3F)c(OCc3ccccc3)c2)SC1=S"
endpoint = "IC50"
units_label = "nM"
relational_operator = "="
result_number = 50

[[record]]
compound = "CCC(Oc1cc(/C=C2\\SC(=S)N(CC(=O)O)C2=O)ccc1OCCc1ccccc1)c1ccccc1 (centres undefined)"
endpoint = "IC50"
units_label = "nM"
relational_operator = "="
result_number = 20

[[record]]
compound = "O=C(O)CN1C(=O)/C(=C/c2ccc(OCCc3ccc(OC(F)(F)F)cc3)c(OCc3ccccc3)c2)SC1=S"
endpoint = "IC50"
units_label = "nM"
relational_operator = "="
result_number = 200

[[record]]
compound = "C[C@@H](COc1ccc(/C=C2\\SC(=S)N(CC(=O)O)C2=O)cc1O[C@H](C)c1ccccc1)c1ccccc1"
endpoint = "IC50"
units_label = "nM"
relational_operator = "="
result_number = 30

[[record]]
compound = "CCCN(CCC)C(=O)C(Oc1cc(/C=C2\\SC(=S)N(CC(=O)O)C2=O)ccc1OCCc1ccccc1)c1ccccc1 (centres undefined)"
endpoint = "IC50"
units_label = "nM"
relational_operator = "="
result_number = 50

[[record]]
compound = "O=C(O)CN1C(=O)/C(=C/c2ccc(OCCc3ccc(C(F)(F)F)cc3)c(OCc3ccccc3)c2)SC1=S"
endpoint = "IC50"
units_label = "nM"
relational_operator = "="
result_number = 180

[[record]]
compound = "O=C(O)CN1C(=O)/C(=C/c2ccc(OCCCc3ccccc3)c(OCc3ccccc3)c2)SC1=S"
endpoint = "IC50"
units_label = "nM"
relational_operator = "="
result_number = 2400

[[record]]
compound = "C[C@H](COc1ccc(/C=C2\\SC(=S)N(CC(=O)O)C2=O)cc1O[C@@H](c1ccccc1)C(F)(F)F)c1ccccc1"
endpoint = "IC50"
units_label = "nM"
relational_operator = "="
result_number = 550

[[record]]
compound = "O=C(O)CN1C(=O)/C(=C/c2ccc(OCCc3ccccc3)c(OC(C(=O)N3CCOCC3)c3ccccc3)c2)SC1=S (centres undefined)"
endpoint = "IC50"
units_label = "nM"
relational_operator = "="
result_number = 43000

[[record]]
compound = "C[C@H](Oc1cc(/C=C2\\SC(=S)N(CC(=O)O)C2=O)ccc1OC[C@H](C)c1ccccc1)c1ccccc1"
endpoint = "IC50"
units_label = "nM"
relational_operator = "="
result_number = 2

[[record]]
compound = "CS(=O)(=O)c1ccc(COc2ccc(/C=C3\\SC(=S)N(CC(=O)O)C3=O)cc2OCc2ccccc2)cc1"
endpoint = "IC50"
units_label = "nM"
relational_operator = ">"
result_number = 100000

[[record]]
compound = "O=C(O)CN1C(=O)/C(=C/c2ccc(OCc3ccc(F)cc3F)c(OCc3ccc(F)cc3F)c2)SC1=S"
endpoint = "IC50"
units_label = "nM"
relational_operator = ">"
result_number = 100000

[[record]]
compound = "O=C(O)CN1C(=O)/C(=C/c2ccc(OCc3ccc(Cl)cc3)c(OCc3ccccc3)c2)SC1=S"
endpoint = "IC50"
units_label = "nM"
relational_operator = "="
result_number = 600

[[record]]
compound = "O=C(O)CN1C(=O)/C(=C\\c2ccc(OCc3ccccc3)c(OCc3ccc(OC(F)(F)F)cc3)c2)SC1=S"
endpoint = "IC50"
units_label = "nM"
relational_operator = "="
result_number = 500

[[record]]
compound = "O=C(O)CN1C(=O)/C(=C/c2ccc(OCCc3ccc(F)cc3)c(OCc3ccccc3)c2)SC1=S"
endpoint = "IC50"
units_label = "nM"
relational_operator = "="
result_number = 50

[[record]]
compound = "C[C@@H](COc1ccc(/C=C2\\SC(=S)N(CC(=O)O)C2=O)cc1OCc1ccccc1)c1ccccc1"
endpoint = "IC50"
units_label = "nM"
relational_operator = "="
result_number = 70

[[record]]
compound = "O=C(O)CN1C(=O)/C(=C/c2ccc(OCc3ccc(F)cc3F)c(OCc3ccccc3)c2)SC1=S"
endpoint = "IC50"
units_label = "nM"
relational_operator = "="
result_number = 2100

